- experimental-system: LRRK2 (human)
- assay-details: radiometric filter-binding kinase assay, Kinase HotSpot
- experimental-setup: compound 0.5 µM; ATP 10 µM
property-measured: residual activity (%)

>  <smiles-str>
NC(=O)c1ccc(N(C(N)=O)c2c(F)cccc2F)nc1-c1ccc(F)cc1F

>  <property-measured>
residual activity

>  <reported-result>
82

$$$$
>  <smiles-str>
CC(C)n1cnc2c(Nc3cccc(Cl)c3)nc(NCCO)nc21

>  <property-measured>
residual activity

>  <reported-result>
72.8

$$$$
>  <smiles-str>
Cc1ccc(NC(=O)c2ccc(CN3CCN(C)CC3)cc2)cc1Nc1nc(-c2cccnc2)cs1

>  <property-measured>
residual activity

>  <reported-result>
107

$$$$

* * *

- experimental-system: MAPK14 (human) (UniProt Q16539)
- Sequence (Q16539 whole entry, looked up): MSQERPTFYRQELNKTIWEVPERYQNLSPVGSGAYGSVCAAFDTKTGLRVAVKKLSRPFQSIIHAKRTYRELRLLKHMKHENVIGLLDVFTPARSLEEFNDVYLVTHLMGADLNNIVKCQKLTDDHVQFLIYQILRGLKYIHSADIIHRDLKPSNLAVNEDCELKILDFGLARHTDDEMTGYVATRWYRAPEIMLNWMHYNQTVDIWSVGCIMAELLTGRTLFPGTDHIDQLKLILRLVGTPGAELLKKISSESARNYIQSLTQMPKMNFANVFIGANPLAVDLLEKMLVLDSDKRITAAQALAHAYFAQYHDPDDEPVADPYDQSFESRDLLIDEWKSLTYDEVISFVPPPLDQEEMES
- assay-details: radiometric filter-binding kinase assay, Kinase HotSpot
- experimental-setup: compound 0.5 µM; ATP 10 µM
Listed below: residual activity values for each entry.

>  <compound>
O=C1Nc2cc(Br)ccc2/C1=C1/Nc2ccccc2/C1=N\O

>  <experimental-system>
MAPK14 (human) (UniProt Q16539)

>  <residual activity [%]>
105

$$$$
>  <compound>
NC(=O)c1ccc(N(C(N)=O)c2c(F)cccc2F)nc1-c1ccc(F)cc1F

>  <experimental-system>
MAPK14 (human) (UniProt Q16539)

>  <residual activity [%]>
5.23

$$$$
>  <compound>
CC(C)n1cnc2c(Nc3cccc(Cl)c3)nc(NCCO)nc21

>  <experimental-system>
MAPK14 (human) (UniProt Q16539)

>  <residual activity [%]>
90.7

$$$$
>  <compound>
COc1cc2nccc(Oc3ccc(NC(=S)NC(=O)c4ccccc4C)cc3)c2cc1OC

>  <experimental-system>
MAPK14 (human) (UniProt Q16539)

>  <residual activity [%]>
80.2

$$$$
>  <compound>
CC(C)[C@H](CO)Nc1nc(Nc2cccc(Cl)c2)c2ncn(C(C)C)c2n1

>  <experimental-system>
MAPK14 (human) (UniProt Q16539)

>  <residual activity [%]>
99.4

$$$$
>  <compound>
O=C(NC(NC(=S)Nc1ccc(F)c([N+](=O)[O-])c1)C(Cl)(Cl)Cl)C(c1ccccc1)c1ccccc1 (stereo not given)

>  <experimental-system>
MAPK14 (human) (UniProt Q16539)

>  <residual activity [%]>
101

$$$$
>  <compound>
CC(C)(C)c1nc2c3ccc(F)cc3c3c(=O)[nH]ccc3c2[nH]1

>  <experimental-system>
MAPK14 (human) (UniProt Q16539)

>  <residual activity [%]>
93.5

$$$$
>  <compound>
O=c1cc(-c2cccc3c2Sc2ccccc2S3)oc(N2CCOCC2)c1

>  <experimental-system>
MAPK14 (human) (UniProt Q16539)

>  <residual activity [%]>
99.3

$$$$
>  <compound>
CCN1/C(=C/C(C)=O)Sc2ccc(OC)cc21

>  <experimental-system>
MAPK14 (human) (UniProt Q16539)

>  <residual activity [%]>
95.4

$$$$
>  <compound>
CCCNC(=O)Nc1ccc(Oc2ncnc3cc(OC)c(OC)cc23)cc1Cl

>  <experimental-system>
MAPK14 (human) (UniProt Q16539)

>  <residual activity [%]>
122

$$$$

* * *

- experimental-system: RPS6KA1 KD1 KD2 (human)
- assay-details: radiometric filter-binding kinase assay, Kinase HotSpot
- experimental-setup: compound 0.5 µM; ATP 10 µM
Listed below: residual activity values for each entry.

>  <smiles-str>
Oc1ccc(-c2nc(-c3ccc(F)cc3)c(-c3ccncc3)[nH]2)cc1

>  <residual activity, %>
98.1

$$$$
>  <smiles-str>
CC(C)(C)c1nc2c3ccc(F)cc3c3c(=O)[nH]ccc3c2[nH]1

>  <residual activity, %>
38.6

$$$$
>  <smiles-str>
O=C1Cc2c([nH]c3ccc([N+](=O)[O-])cc23)-c2ccccc2N1

>  <residual activity, %>
89.7

$$$$
>  <smiles-str>
O=c1cc(-c2cccc3c2Sc2ccccc2S3)oc(N2CCOCC2)c1

>  <residual activity, %>
97.6

$$$$
